B1: CSNK1G1 (parent)
chain: GSLPWQGLKADTLKERYQKIGDTK

# Variants of: B1
# ASSAY_COMMENT: protein stability index of a GFP-peptide fusion (GPS, HEK-293T) (PSI 1-6); higher = more stable;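 further: lentivirally expressed fusions sorted by FACS into six bins by GFP to DsRed ratio, PSI derived from sequencing read proportions per bin multiplied by bin number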
# ASSAY_CONTEXT: c terminus: a fixed tail appended
TEST_READOUT: protein stability index
// no unit string in output, number only

R16Y    4.01
I20T    4.46
W5E    5.42
E15T    3.93
W5V    4.58
T12D    4.68

Task: I would be grateful if you could share the reported protein stability index for L8T .
Result: 4.9
